# System: SULT2A1
# Test protocol: SULT2A1 enzyme activity assay: sulfate conjugation of DHEA with 35S-PAPS, COS-1 cytosol preparations of recombinant allozymes
# Format: biochemical, human
# Details: apparent Km for DHEA; read-out: DHEA Km
Quantity: Km (µM)
Give just the number in µM; leave the unit off.

Sample records with Km:
# Molecule, Quantity, Reported result
data = [
    ("Ala63Pro: SULT2A1 allozyme having a proline at amino acid residue 63 in place of alanine (protein, UniProt Q06520 1-285, looked up, variant A63P) Sulfotransferase 2A1: MSDDFLWFEGIAFPTMGFRSETLRKVRDEFVIRDEDVIILTYPKSGTNWLAEILCLMHSKGDPKWIQSVPIWERSPWVESEIGYTALSETESPRLFSSHLPIQLFPKSFFSSKAKVIYLMRNPRDVLVSGYFFWKNMKFIKKPKSWEEYFEWFCQGTVLYGSWFDHIHGWMPMREEKNFLLLSYEELKQDTGRTIEKICQFLGKTLEPEELNLILKNSSFQSMKENKMSNYSLLSVDYVVDKAQLLRKGVSGDWKNHFTVAQAEDFDKLFQEKMADLPRELFPWE", "Km", 0.21),
    ("63Pro/261Thr: SULT2A1 polypeptide with a proline at position 63 and a threonine at position 261 (double variant) (protein, UniProt Q06520 1-285, looked up, variant A63P A261T) Sulfotransferase 2A1: MSDDFLWFEGIAFPTMGFRSETLRKVRDEFVIRDEDVIILTYPKSGTNWLAEILCLMHSKGDPKWIQSVPIWERSPWVESEIGYTALSETESPRLFSSHLPIQLFPKSFFSSKAKVIYLMRNPRDVLVSGYFFWKNMKFIKKPKSWEEYFEWFCQGTVLYGSWFDHIHGWMPMREEKNFLLLSYEELKQDTGRTIEKICQFLGKTLEPEELNLILKNSSFQSMKENKMSNYSLLSVDYVVDKAQLLRKGVSGDWKNHFTVTQAEDFDKLFQEKMADLPRELFPWE", "Km", 0.29),
]

The record that follows has no Km shown yet.
Fill in the blank: the reported Km of WT: recombinant wild type (reference) human SULT2A1 polypeptide, SEQ ID NO:3, expressed in COS-1 cells (protein, listed as Homo Sapiens) MSDDFLWFEGIAFPTMGFRSETLRKVRDEFVIRDEDVIILTYPKSGTNWLAEILCLMHSKGDAKWIQSVPIWERSPWVESEIGYTALSESESPRLFSSHLPIQLFPKSFFSSKAKVIYLMRNPRDVLVSGYFFWKNMKFIKKPKSWEEYFEWFCQGTVLYGSWFDHIHGWMPMREEKNFLLLSYEELKQDTGRTIEKICQFLGKTLEPEELNLILKNSSFQSMKENKMSNYSLLSVDYVVDKAQLLRKGVSGDWKNHFTVAQAEDFDKLFQEKMADLPRELFPWE is ____.
0.247
